Please go through the items and note down their inhibition.
test: inhibition of NOD2-driven NF-kB reporter – cell-based, luminescence, uHTS, HEK293 (AID 1566); settings: HEK293 NOD2/NF-kB luciferase reporter, at 4 µM, hits give high values
Screen size: about 290,000 compounds; about 1,800 (0.62%) were called active. Only a selection was taken, and actives are over-represented in it overall.
Numbers only, in %.

Worked set:
{"COMPOUND": "Cc1ccc2oc(/N=C(\\N)NC(=O)C3CC3)nc2c1", "UNIT ABBREV": "%", "inhibition": 5.6}
{"COMPOUND": "CNC(=O)N(O)C1N(/N=C/c2cc(Br)ccc2O)C(=S)SC1(C)C (stereo unspecified)", "UNIT ABBREV": "%", "inhibition": 13.6}
{"COMPOUND": "C=CCc1cccc2cc(C(=O)O)c(=O)oc12", "UNIT ABBREV": "%", "inhibition": -2.5}

Here are 2 compounds. What values of inhibition were reported for them?
1. Cc1no[n+]([O-])c1COc1ccc(/C=N/n2nnnc2N)cc1
2. O=C(NN/C(=N/S(=O)(=O)c1ccc(Cl)cc1)c1ccccc1)c1cccc(Cl)c1

# output
1: -31; 2: -51.7

----------
Please go through the items and note down their inhibition.
assay: inhibition of NOD2-driven NF-kB reporter – cell-based, luminescence, uHTS, HEK293 (AID 1566); conditions: HEK293 NOD2/NF-kB luciferase reporter, at 4 µM, hits give high values
Screen size: about 290,000 compounds; about 1,800 (0.62%) were called active. This is one part of a sample in which actives are shown more often than they occur.
Answers are plain numbers, in %.

{"COMPOUND": "CCCC(=O)C1=C(O)C(C(=O)OC)C(C)(C)CC1=Nc1cccc2ccccc12 (centres undefined)", "UNIT ABBREV": "%", "inhibition": 13.4}
{"COMPOUND": "CCN(CC)c1ccc(S(=O)(=O)N2CCOCC2)cc1NC(=O)CN1CCN(Cc2ccccc2)CC1", "UNIT ABBREV": "%", "inhibition": -7.9}
{"COMPOUND": "CCn1cc(/C=C(\\NC(=O)c2ccc(OC)cc2)C(=O)N2CCOCC2)c2ccccc21", "UNIT ABBREV": "%", "inhibition": 11.3}
{"COMPOUND": "O=C(CN1CCc2ccccc2C1)Nc1cc(S(=O)(=O)N2CCOCC2)ccc1N1CCOCC1", "UNIT ABBREV": "%", "inhibition": -2.4}
{"COMPOUND": "COc1cccc(CNC(=O)CCNC(=O)C2CCN(S(=O)(=O)c3ccc(F)cc3)CC2)c1", "UNIT ABBREV": "%", "inhibition": 9}

Here are 8 compounds. What values of inhibition were reported for them?
1. Cc1ccc(NC(=O)CSc2ccc3c(c2)OCCO3)c(O)c1
2. Cn1c(=O)n(CC(=O)O)c(=O)c2c1nc1n2CCCN1CCc1ccccc1
3. C#CC(=O)N(c1ccc(OC)cc1OC)C(C(=O)NC1CCCC1)c1cccs1 (centres undefined)
4. CCOC(=O)Cc1nnc2c(Nc3ccccc3F)nc3nonc3n12
5. CC(C)CN1CCNC(=O)C1CC(=O)NCCCN1CCCc2ccccc21 (centres undefined)
6. CN1CCN(c2ccc(-c3ccc4ccccc4n3)cc2)CC1
7. CC1=C(C(=O)OCc2ccccc2)C(c2cccc([N+](=O)[O-])c2)NC(=O)N1CCCCCC(=O)O (centres undefined)
8. CCCCc1oc2ccccc2c1C(=O)c1cc(I)c(OCCN(CC)CC)c(I)c1

# output
1. 54.3
2. 4.6
3. 62
4. 55.4
5. 3
6. 79.9
7. 10.6
8. 14.9
